test system: Type 1 helper T cells (CD4^+IFN-γ^+); assay: FACS analysis of Type 1 helper T cells (CD4+IFN-γ+) after peptide treatment of PBMCs; type: cell-based, human; settings: (A value×0.8)+(B value×0.2)
Collected Combined Score values appear next to each entry.
Just the number, please, no unit attached.

Here is how some sequences turned out for Combined Score.
RERYRLHPKFVAAVH [SEQ ID NO: 15]	12.27
ELRONTSQKAAGDVD (ELRQNTSQKAAGDVD) [SEQ ID NO: 17]	20.02
RGEPLQVERTLIYYL [SEQ ID NO: 18]	19.62
SLRCDELVRTHHILIDLRHRPTAGAFN [SEQ ID NO: 11]	11.16
LVRPSEHALVDNDGL [SEQ ID NO: 10]	17.84

Note to self: Combined Score recorded for AGLIAVIVVVVVALVAGMAVLVITNRRKSGKYKK [SEQ ID NO: 24] was 11.88

Note to self: Combined Score recorded for PLRLPLLLLVLAAVTGHTAAQD [SEQ ID NO: 3] was 20.36

Note to self: Combined Score recorded for TLIYYLDEIPPKFSM [SEQ ID NO: 20] was 10.26

Note to self: Combined Score recorded for PKFSMKRLTAGLIAVIV [SEQ ID NO: 22] was 11.25

Note to self: Combined Score recorded for SKCLLLKARMSAPKN [SEQ ID NO: 8] was 11.06

====

Collected Treg (CD25+/Foxp3) values appear next to each entry.
System: regulatory T cells (CD4^+CD25^+Foxp3^+)
Assay: FACS analysis of regulatory T cells (CD4+CD25+Foxp3+) after peptide treatment of PBMCs
Assay type: cell-based
Details: healthy human PBMCs, peptide 10 μg/ml with 1 μg/ml anti-CD3, 72 hours, then PMA/ionomycin + GolgiPlug 6 hours
Text: To this end, the degree of stimulation of Type 1 helper T cells (CD4^+IFN-γ^+), stimulation of interleukin 10 (IL-10)-producing regulatory T cells (CD4^+IL-10+), stimulation of regulatory T cells (CD4^+CD25^+Foxp3^+), and stimulation of Type 2 helper T cells secreting IL-4 and Th17 cells secreting IL-17 according to the treatment with the immunogenic peptide were confirmed. […]
Answer in %, number only, no unit symbol.

TLIYYLDEIPPKFSM [SEQ ID NO: 20]	8.07
LVRPSEHALVDNDGL [SEQ ID NO: 10]	7.66
ELRONTSQKAAGDVD (ELRQNTSQKAAGDVD) [SEQ ID NO: 17]	8.17
PLRLPLLLLVLAAVTGHTAAQD [SEQ ID NO: 3]	8.84
PKFSMKRLTAGLIAVIV [SEQ ID NO: 22]	7.65

Note to self: Treg (CD25+/Foxp3) recorded for SKCLLLKARMSAPKN [SEQ ID NO: 8] was 8.22

Note to self: Treg (CD25+/Foxp3) recorded for SLRCDELVRTHHILIDLRHRPTAGAFN [SEQ ID NO: 11] was 8.23

Note to self: Treg (CD25+/Foxp3) recorded for AGLIAVIVVVVVALVAGMAVLVITNRRKSGKYKK [SEQ ID NO: 24] was 7.10

Note to self: Treg (CD25+/Foxp3) recorded for RERYRLHPKFVAAVH [SEQ ID NO: 15] was 7.93

Note to self: Treg (CD25+/Foxp3) recorded for RGEPLQVERTLIYYL [SEQ ID NO: 18] was 8.01
